Taken from ChEMBL document CHEMBL4340517.

system: Enterococcus faecium; assay: Antibacterial activity against VAN-resistant Enterococcus faecium ATCC 700221 after 18 hrs by agar dilution method; assay type: functional; settings: ATCC 700221, 18 h
OUTCOME MEASURE: MIC (µg/mL)
Enter your answer as a number in µg/mL; do not include the unit.

Exercise: If you can, please state the reported MIC value of CCOc1c(OC)ccc2c1c(-c1ccccc1)[n+]1c3c2ccc2c4c(cc(c23)CC1)OCO4.[Br-] .
Key: 2

Exercise: MIC for CN[C@H](CC(C)C)C(=O)N[C@H]1C(=O)N[C@@H](CC(N)=O)C(=O)N[C@H]2C(=O)N[C@H]3C(=O)N[C@H](C(=O)N[C@H](C(=O)O)c4cc(O)cc(O)c4-c4cc3ccc4O)[C@H](O)c3ccc(c(Cl)c3)Oc3cc2cc(c3O[C@@H]2O[C@H](CO)[C@@H](O)[C@H](O)[C@H]2O[C@H]2C[C@](C)(N)[C@H](O)[C@H](C)O2)Oc2ccc(cc2Cl)[C@H]1O ?
Key: 64

----------
test system: Enterococcus faecium; assay: Antibacterial activity against VAN-resistant Enterococcus faecium ATCC 700221 after 18 hrs by agar dilution method; assay type: functional; conditions: ATCC 700221, 18 h
OUTCOME MEASURE: MIC

Exercise: For the record CCCc1cc2c3ccc(OC)c(OC)c3c(-c3ccc(Cl)cc3)[n+]3c2c2c(cc4c(c12)OCO4)CC3.[Br-] , what value of MIC is listed for Enterococcus faecium?
Key: > 128 µg/mL

Exercise: Param readout = MIC; param system = Enterococcus faecium; param query = COc1cc2c3c(ccc4c5ccc(OC)c(OC)c5c(-c5ccccc5)[n+](c43)CC2)c1OC.[Br-] ; response: value
Key: > 128 µg/mL

Exercise: Fill in the recorded MIC for this compound, with Enterococcus faecium as test system: COc1ccc2c(c1OC)c(-c1ccc(F)cc1)[n+]1c3c2ccc2c4c(cc(c23)CC1)OCO4.[Br-]
Key: > 128 µg/mL
